target: KCNQ2/3 channels (Homo sapiens, UniProt O43525+O43526); construct: expressed in transfected cells; assay: Fluorescence assay using a voltage sensitive dye (fluorimetry); type: cell-based; conditions: CHO-K1 cells expressing KCNQ2/3; IC50 where % efficacy is negative; read-out: Fluorimetry EC50/IC50
Sequence (O43526 whole entry): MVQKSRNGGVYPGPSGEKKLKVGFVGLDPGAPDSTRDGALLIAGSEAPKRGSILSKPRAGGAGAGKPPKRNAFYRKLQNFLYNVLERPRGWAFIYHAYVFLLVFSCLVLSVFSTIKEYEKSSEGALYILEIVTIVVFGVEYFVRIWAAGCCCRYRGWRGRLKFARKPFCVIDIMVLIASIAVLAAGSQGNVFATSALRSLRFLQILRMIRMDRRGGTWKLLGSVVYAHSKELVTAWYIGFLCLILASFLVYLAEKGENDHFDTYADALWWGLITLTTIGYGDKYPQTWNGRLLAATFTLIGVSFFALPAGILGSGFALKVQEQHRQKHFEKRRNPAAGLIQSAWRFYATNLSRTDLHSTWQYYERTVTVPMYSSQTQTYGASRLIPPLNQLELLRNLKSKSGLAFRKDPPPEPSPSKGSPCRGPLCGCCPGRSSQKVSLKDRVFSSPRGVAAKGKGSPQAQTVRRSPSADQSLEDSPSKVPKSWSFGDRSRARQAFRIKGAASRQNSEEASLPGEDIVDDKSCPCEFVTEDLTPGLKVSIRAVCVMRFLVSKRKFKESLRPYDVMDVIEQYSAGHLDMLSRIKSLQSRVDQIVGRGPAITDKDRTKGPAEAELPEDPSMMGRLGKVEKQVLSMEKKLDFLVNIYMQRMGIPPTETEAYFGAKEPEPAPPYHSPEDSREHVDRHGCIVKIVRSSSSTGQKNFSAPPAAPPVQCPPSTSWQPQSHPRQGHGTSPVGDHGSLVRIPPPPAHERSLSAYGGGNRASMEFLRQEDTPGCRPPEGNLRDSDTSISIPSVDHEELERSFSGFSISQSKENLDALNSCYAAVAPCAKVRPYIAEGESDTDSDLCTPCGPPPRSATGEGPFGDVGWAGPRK
Sequence (O43525 whole entry): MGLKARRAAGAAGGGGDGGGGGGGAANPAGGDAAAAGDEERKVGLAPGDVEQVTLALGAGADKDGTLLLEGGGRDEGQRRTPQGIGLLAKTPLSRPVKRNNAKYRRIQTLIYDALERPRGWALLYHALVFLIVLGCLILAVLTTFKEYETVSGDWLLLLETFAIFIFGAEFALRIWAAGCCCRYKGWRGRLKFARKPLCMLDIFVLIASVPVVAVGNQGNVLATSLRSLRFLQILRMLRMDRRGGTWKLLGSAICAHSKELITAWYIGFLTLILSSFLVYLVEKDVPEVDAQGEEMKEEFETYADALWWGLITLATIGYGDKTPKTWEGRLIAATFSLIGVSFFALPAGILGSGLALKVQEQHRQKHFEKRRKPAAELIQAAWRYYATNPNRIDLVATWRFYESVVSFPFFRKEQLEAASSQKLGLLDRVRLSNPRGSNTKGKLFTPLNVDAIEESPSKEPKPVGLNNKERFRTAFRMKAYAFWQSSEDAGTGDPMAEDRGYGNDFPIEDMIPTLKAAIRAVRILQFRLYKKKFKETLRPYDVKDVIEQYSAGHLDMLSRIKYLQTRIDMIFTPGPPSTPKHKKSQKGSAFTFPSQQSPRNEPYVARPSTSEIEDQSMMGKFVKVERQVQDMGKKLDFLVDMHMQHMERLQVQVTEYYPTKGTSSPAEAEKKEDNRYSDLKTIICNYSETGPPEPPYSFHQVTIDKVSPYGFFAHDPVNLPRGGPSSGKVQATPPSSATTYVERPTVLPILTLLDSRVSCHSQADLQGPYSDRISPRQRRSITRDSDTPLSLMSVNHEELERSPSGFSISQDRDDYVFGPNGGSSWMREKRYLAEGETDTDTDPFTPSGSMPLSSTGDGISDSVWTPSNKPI
MEASUREMENT_NAME: EC50 (nM)

Cc1cc(N2CCOCC2)nc(C(C)C)c1C(=O)NCc1ccc(Cl)cc1 ... 50
CCSc1nc(N2CCOCC2)cc(C)c1C(=O)NCCCC(C)(C)CC ... 22
CCN(C)c1nc(N2CCOCC2)cc(C)c1C(=O)NCc1cc(F)cc(F)c1 ... 141
COc1nc(N2CCOC[C@H]2C)cc(C)c1C(=O)NCc1ccc(F)cc1 ... 255
COCCSc1nc(N2CCOCC2)cc(C)c1C(=O)NCc1cccc(F)c1 ... 585

P = CCSc1nc(N2CCOCC2)cc(C)c1C(=O)NCC#CC(C)(C)C
Q = CSc1nc(N2CCOCC2)cc(C)c1C(=O)NCc1ccc(C(F)(F)F)cc1
Which of the two items, P and Q , has the greater recorded EC50? Indicate which entry you chose by stating its label.
Q
(Q: 166 nM, P: 41 nM)

I = COc1nc(N2CCOCC2)cc(C)c1C(=O)NCc1ccc(Cl)cc1
II = Cc1cc(N2CCOCC2)nc(C(C)C)c1C(=O)NCc1ccc(C(F)(F)F)cc1
Of I and II , whose reported EC50 is the larger number? Answer with the label corresponding to your selection.
I
(I: 230 nM, II: 45 nM)

a = CCSc1nc(N2CCOCC2)cc(C)c1C(=O)NCc1cccc(Cl)c1
b = CCSc1nc(N(CCOC)CCOC)cc(C)c1C(=O)NCc1cccc(F)c1
Lower value of EC50 belongs to which: a or b ? Return value: the label identifying the chosen record.
a
(a: 87 nM, b: 2090 nM)

P = CCSc1nc(N2CCO[C@H](C)C2)cc(C)c1C(=O)NCCCC(C)(C)C
Q = Cc1cc(N2CCOCC2)nc(C2CC2)c1C(=O)NCc1cc(F)cc(F)c1
Between P and Q , whose measured EC50 reads higher? Respond using the label that marks the chosen record.
Q

a = Cc1cc(N2CCOCC2)nc(OCCF)c1C(=O)NCc1ccc(Cl)cc1
b = CCSc1nc(N2CCN(C3CC3)CC2)cc(C)c1C(=O)NCc1cccc(F)c1
Which shows the larger EC50 value: a or b ? Please reply using the label of the selected record.
b

I = CSc1nc(N2CCOCC2)cc(C)c1C(=O)NCc1cc(F)cc(F)c1
II = Cc1cc(N2CCOCC2)nc(N(C)C)c1C(=O)NCc1ccc(F)cc1
Could you tell me which of these two has the smaller EC50 figure? First: I Second: II Refer to your chosen entry by its label in the reply.
I
(I: 157 nM, II: 898 nM)

1 = CCSc1nc(N2CCOCC2)cc(C)c1C(=O)NCCOC(C)C
2 = CCSc1nc(N2CCO[C@@H](COC)C2)cc(C)c1C(=O)NCc1ccc(Cl)cc1
3 = CCSc1nc(N2CCN(C)C(=O)C2)cc(C)c1C(=O)NCc1cccc(F)c1
4 = Cc1cc(N2CCOC[C@H]2C)nc(N(C)C)c1C(=O)NCc1ccc(F)cc1
Arrange these compounds by their EC50, starting with the largest number. Use the labels to give the requested order.
3, 1, 2, 4

P = CCSc1nc(N2CCOC[C@H]2C)cc(C)c1C(=O)NCCCC(C)(C)C
Q = CCOc1nc(N2CCOCC2)cc(C)c1C(=O)NCCCC(F)(F)F
Which gives the smaller EC50 number: P or Q ? // respond with label for picked entry
P
(P: 29 nM, Q: 392 nM)

Source of measurements: patent US9168259B2
